Reported Ratio Ki values are given for each entry in this list.
Species on record: Rattus norvegicus
Test: Selectivity index, ratio of Ki for Wistar rat striatum D2-like receptor to Ki for Wistar rat hippocampus 5HT1A receptor
Assay type: tissue-based

Study these solved cases before continuing.
molecular string	Ratio Ki
Fc1ccc(-n2cc(CN3CCN(c4ccccc4)CC3)cn2)cc1	1.07
c1ccc(N2CCN(Cc3cnn(-c4ccccc4)c3)CC2)cc1	2.31
Fc1ccc(N2CCN(Cc3cnn(-c4ccc(F)cc4)c3)CC2)cc1	2.05

response.value for `O=[N+]([O-])c1ccc(-n2cc(CN3CCN(c4ccccc4)CC3)nn2)cc1` (field: Ratio Ki) = 1.2

For record `c1ccc(N2CCN(Cc3cn(-c4ccccc4)nn3)CC2)cc1` the listed Ratio Ki is 1.54

The recorded Ratio Ki for `Clc1ccc(-n2cc(CN3CCN(c4ccccc4)CC3)nn2)cc1` is 0.78

The reported measurements were obtained from ChEMBL document CHEMBL1157588.
